Target: recombinant human liver glycogen phosphorylase (Homo sapiens, UniProt P06737)
Construct: made in house; host or cells: Sf9 insect cells (crude homogenate, diluted, used as the enzyme solution)
Sequence (P06737 1-847): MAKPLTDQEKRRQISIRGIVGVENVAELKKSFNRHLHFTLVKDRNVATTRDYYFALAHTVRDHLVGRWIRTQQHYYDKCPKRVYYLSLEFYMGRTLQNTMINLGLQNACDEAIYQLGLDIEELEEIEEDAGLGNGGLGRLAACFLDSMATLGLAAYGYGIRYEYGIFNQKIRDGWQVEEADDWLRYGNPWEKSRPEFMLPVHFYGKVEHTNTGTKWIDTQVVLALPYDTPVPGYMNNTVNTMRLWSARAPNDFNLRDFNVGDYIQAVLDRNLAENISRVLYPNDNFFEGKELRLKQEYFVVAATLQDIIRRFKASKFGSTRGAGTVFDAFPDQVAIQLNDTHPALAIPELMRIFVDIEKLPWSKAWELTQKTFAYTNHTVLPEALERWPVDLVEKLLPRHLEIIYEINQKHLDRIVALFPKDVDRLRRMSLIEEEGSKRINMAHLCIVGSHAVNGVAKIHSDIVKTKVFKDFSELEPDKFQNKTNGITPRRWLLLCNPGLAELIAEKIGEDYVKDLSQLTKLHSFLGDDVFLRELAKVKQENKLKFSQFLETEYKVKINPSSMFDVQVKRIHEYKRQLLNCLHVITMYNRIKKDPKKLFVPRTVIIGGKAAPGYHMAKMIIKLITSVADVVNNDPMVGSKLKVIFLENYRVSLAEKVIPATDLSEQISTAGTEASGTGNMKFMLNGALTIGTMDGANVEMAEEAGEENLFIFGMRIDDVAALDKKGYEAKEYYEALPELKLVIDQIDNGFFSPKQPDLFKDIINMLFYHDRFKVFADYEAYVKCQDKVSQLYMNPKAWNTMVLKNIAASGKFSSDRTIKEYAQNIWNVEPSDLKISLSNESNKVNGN
Assay: Measuring liver glycogen phosphorylase activity (forward reaction system, NADPH absorbance at 340 nm)
Type: biochemical
Settings: figure in brackets (300); read-out: IC50 column: % value printed with (300)
endpoint.label: inhibition at 0.3 µM (%)

smiles.representation: O=C(NCc1cccnc1)c1cc(NC(=O)c2cc(F)c(Cl)nc2Cl)[nH]n1
unit.symbol: %
observed: 8.5
//
smiles.representation: O=C(NCc1cccnc1)c1cc(NC(=O)c2sccc2Cl)[nH]n1
unit.symbol: %
observed: 2.9
//
smiles.representation: CN(C(=O)c1cc(NC(=O)c2cc(F)c(N=[N+]=[N-])cc2Cl)[nH]n1)c1ccc(C#N)cc1
unit.symbol: %
observed: 5.5
//
smiles.representation: O=C(Nc1cc(C(=O)NCc2cccnc2)n[nH]1)c1ccccc1
unit.symbol: %
observed: 6.8

###

Test system: db/db mice
Assay: Measuring blood plasma glucose concentration in db/db mice (hypoglycemic effect)
Format: in vivo
Design: key: ++: compounds exhibiting statistically significant hypoglycemic effect at a dose of 10 mg/kg or less; +: compounds exhibiting not significant but obvious hypoglycemic effect at a dose of 10 mg/kg
Details: db/db mice fasted 4 h, oral administration, plasma glucose 1 and 3 hours after administration, dose 10 mg/kg or less, Dunnett test vs solvent
Description: 2. Exemplary Test (2) Method for Measuring Blood Plasma Glucose Concentration Using db/db mice representing an obesity type of diabetic model were used to examine the effect of compound (1) of the present invention on glucose concentrations in plasma. Plasma glucose concentrations of the db/db mice (9-18 weeks old) were measured, and the mice were divided into groups each of 5 or 8 mice such that there would be no difference in the average value of plasma glucose concentrations. […]
endpoint.label: vivo (hypoglycemic effect in db/db mice)

smiles.representation: Cc1noc(C)c1CNC(=O)c1cc(NC(=O)c2cc(F)c(F)cc2Cl)[nH]n1.Cl
observed: +
--
smiles.representation: Cl.Cn1c(CNC(=O)c2cc(NC(=O)c3cc(F)c(F)cc3Cl)[nH]n2)nc2ccccc21
observed: +
--
smiles.representation: CCOc1ncccc1CNC(=O)c1cc(NC(=O)c2cc(F)c(F)cc2Cl)[nH]n1
observed: ++
--
smiles.representation: COCCN(C(=O)c1cc(NC(=O)c2cc(F)c(F)cc2Cl)[nH]n1)C1CCCC1
observed: +
--
smiles.representation: COC(=O)c1ccc(CNC(=O)c2cc(NC(=O)c3cc(F)c(F)cc3Cl)[nH]n2)cc1
observed: +
--
smiles.representation: O=C(NCCN1CCOCC1)c1cc(CNC(=O)c2cc(NC(=O)c3cc(F)c(F)cc3Cl)[nH]n2)ccn1
observed: +
--
smiles.representation: O=C(NCc1ccc(F)nc1)c1cc(NC(=O)c2cc(F)c(F)cc2Cl)[nH]n1
observed: +
--
smiles.representation: Cl.O=C(NCc1ccncc1)c1cc(NC(=O)c2cc(F)c(F)cc2Cl)[nH]n1
observed: ++
--
smiles.representation: CCCCN(Cc1cccnc1)C(=O)c1cc(NC(=O)c2cc(F)c(F)cc2Cl)[nH]n1
observed: ++
--
smiles.representation: O=C(NCc1ccc(N2CCSCC2)nc1)c1cc(NC(=O)c2cc(F)c(F)cc2Cl)[nH]n1
observed: +
--
smiles.representation: O=C(NCc1cccc(F)c1F)c1cc(NC(=O)c2cc(F)c(F)cc2Cl)[nH]n1
observed: +
--
smiles.representation: CS(=O)(=O)O.Cc1noc(C)c1CNC(=O)c1cc(NC(=O)c2cc(F)c(F)cc2Cl)[nH]n1
observed: +
--
smiles.representation: CCCCN(C(=O)c1cc(NC(=O)c2cc(F)c(F)cc2Cl)[nH]n1)c1ccc(CC(=O)O)cc1
observed: +
--
smiles.representation: Cc1ncccc1CNC(=O)c1cc(NC(=O)c2cc(F)c(F)cc2Cl)[nH]n1
observed: +
--
smiles.representation: Cc1cccc(CNC(=O)c2cc(NC(=O)c3cc(F)c(F)cc3Cl)[nH]n2)n1
observed: +
--
smiles.representation: COc1cc(C)ncc1CNC(=O)c1cc(NC(=O)c2cc(F)c(F)cc2Cl)[nH]n1
observed: ++
--
smiles.representation: Cl.O=C(NCc1ccc(N2CCOCC2)nc1)c1cc(NC(=O)c2cc(F)c(F)cc2Cl)[nH]n1
observed: ++
--
smiles.representation: Cl.O=C(NCc1ccc2c(c1)OCO2)c1cc(NC(=O)c2cc(F)c(F)cc2Cl)[nH]n1
observed: ++
--
smiles.representation: COCCCN(C(=O)c1cc(NC(=O)c2cc(F)c(F)cc2Cl)[nH]n1)C1CCCCC1
observed: +
--
smiles.representation: O=C(O)c1ccc(CNC(=O)c2cc(NC(=O)c3cc(F)c(F)cc3Cl)[nH]n2)cc1
observed: +
--
smiles.representation: COc1ccc(CNC(=O)c2cc(NC(=O)c3cc(F)c(F)cc3Cl)[nH]n2)cc1
observed: +
--
smiles.representation: CN(C(=O)c1cc(NC(=O)c2cc(F)c(F)cc2Cl)[nH]n1)c1ccc(C(=O)[O-])cc1.[Na+]
observed: ++
--
smiles.representation: CCCCN(C(=O)c1cc(NC(=O)c2cc(F)c(F)cc2Cl)[nH]n1)c1ccc(C(=O)O)cc1
observed: +
--
smiles.representation: CCN(CC)c1ccc(CNC(=O)c2cc(NC(=O)c3cc(F)c(F)cc3Cl)[nH]n2)cn1
observed: ++

###

Target: recombinant human liver glycogen phosphorylase (Homo sapiens, UniProt P06737)
Construct: made in house; host or cells: Sf9 insect cells (crude homogenate, diluted, used as the enzyme solution)
Assay: Measuring liver glycogen phosphorylase activity (forward reaction system, NADPH absorbance at 340 nm)
Type: biochemical
Conditions: compound concentration 300 nmol (in parentheses); read-out: inhibition rate (%) at a certain concentration
Binary classification by inhibition at 0.3 µM, with 20% as an inclusive lower bound for Satisfied; all other cases are Not satisfied.

molecule: COc1ccc(Cl)cc1C(=O)Nc1cc(C(=O)NCc2ccccc2)n[nH]1 [Example 4-17]
discrete.label: Not satisfied
//
molecule: Cc1ccc(C(=O)Nc2cc(C(=O)NCc3ccccc3)n[nH]2)c(Cl)n1 [Example 4-43]
discrete.label: Not satisfied
//
molecule: O=C(Nc1cc(C(=O)N(CCCCO)Cc2ccccc2)n[nH]1)c1cc(F)c(F)cc1Cl [Example 1-86]
discrete.label: Not satisfied
//
molecule: Cc1ncccc1C(=O)Nc1cc(C(=O)NCc2ccccc2)n[nH]1 [Example 4-42]
discrete.label: Not satisfied
//
molecule: CCCCN(C(=O)c1cc(NC(=O)c2cc(F)c(F)cc2Cl)[nH]n1)C1CCNCC1 [Example 1-109]
discrete.label: Satisfied
//
molecule: COc1ccccc1NC(=O)c1cc(NC(=O)c2cc(F)c(F)cc2Cl)[nH]n1 [Example 3-27]
discrete.label: Satisfied

###

Target: recombinant human liver glycogen phosphorylase (Homo sapiens, UniProt P06737)
Construct: made in house; host or cells: Sf9 insect cells (crude homogenate, diluted, used as the enzyme solution)
Experiment: Measuring liver glycogen phosphorylase activity (forward reaction system, NADPH absorbance at 340 nm)
Type: biochemical
Conditions: enzyme inhibitory activity with respect to liver glycogen phosphorylase; class symbols
Method: [Pharmacological Test] 1. Exemplary Test (1) Method for Measuring Liver Glycogen Phosphorylase Activity The measurement of glycogen phosphorylase activity was carried out by a method using the forward reaction system. The measurement of glycogen phosphorylase activity using the forward reaction system was carried out as follows. […] NADPH generated from NADP during the dehydrogenation by G6PDH was detected. […]
pIC50: −log10 of the molar value.

compound: O=C(NCc1cccc(F)c1F)c1cc(NC(=O)c2cc(F)c(F)cc2Cl)[nH]n1 [Example 1-18]
pIC50: > 7.00
--
compound: CN(C(=O)c1cc(NC(=O)c2cc(F)c(F)cc2Cl)[nH]n1)C1CCCCC1 [Example 1-78]
pIC50: > 7.00
--
compound: CN(C)CCN(C(=O)c1cc(NC(=O)c2cc(F)c(F)cc2Cl)[nH]n1)C1CCCCC1 [Example 3-44]
pIC50: 6.52 to 7.00
--
compound: CCNC(=O)c1cccc(CNC(=O)c2cc(NC(=O)c3cc(F)c(F)cc3Cl)[nH]n2)c1 [Example 1-121]
pIC50: > 7.00
--
compound: COC(=O)CNC(=O)c1ccc(CNC(=O)c2cc(NC(=O)c3cc(F)c(F)cc3Cl)[nH]n2)cc1 [Example 1-43]
pIC50: > 7.00
--
compound: CCc1nc(C)c(CNC(=O)c2cc(NC(=O)c3cc(F)c(F)cc3Cl)[nH]n2)o1 [Example 1-158]
pIC50: > 7.00
--
compound: CCCN(Cc1ccc(Cl)nc1)C(=O)c1cc(NC(=O)c2cc(F)c(F)cc2Cl)[nH]n1 [Example 1-133]
pIC50: > 7.00
--
compound: O=C(NCc1c(F)cccc1Cl)c1cc(NC(=O)c2cc(F)c(F)cc2Cl)[nH]n1 [Example 1-36]
pIC50: > 7.00
--
compound: O=C(O)CCNC(=O)c1ccc(CNC(=O)c2cc(NC(=O)c3cc(F)c(F)cc3Cl)[nH]n2)cc1 [Example 5-7]
pIC50: > 7.00
--
compound: CCCCN(C(=O)c1cc(NC(=O)c2cc(F)c(F)cc2Cl)[nH]n1)c1ccccc1 [Example 3-17]
pIC50: > 7.00
--
compound: COCCN(C)C(=O)c1cc(NC(=O)c2cc(F)c(F)cc2Cl)[nH]n1 [Example 1-6]
pIC50: 6.52 to 7.00
--
compound: CS(=O)(=O)Nc1cccc(CNC(=O)c2cc(NC(=O)c3cc(F)c(F)cc3Cl)[nH]n2)c1 [Example 2-15]
pIC50: > 7.00
--
compound: Cc1ncoc1CNC(=O)c1cc(NC(=O)c2cc(F)c(F)cc2Cl)[nH]n1 [Example 1-2]
pIC50: > 7.00
--
compound: O=C(NCc1ccccc1)c1cc(NC(=O)c2ccc(Cl)cc2Cl)[nH]n1 [Example 4-7]
pIC50: 6.52 to 7.00
--
compound: O=C(Nc1cc(C(=O)N(CC(=O)N2CCCCC2)c2ccccc2)n[nH]1)c1cc(F)c(F)cc1Cl [Example 4-11]
pIC50: > 7.00

The origin of these recorded values is patent US20070032529A1.
